biological target: human CD38 (Homo sapiens (Human), UniProt P28907); experiment: NAD+ cyclase activity assay with human recombinant CD38 protein; conditions: 1.9 nM human CD38, 15.8 μM e-NAD substrate, fluorescence read-out
Sequence (P28907 whole entry): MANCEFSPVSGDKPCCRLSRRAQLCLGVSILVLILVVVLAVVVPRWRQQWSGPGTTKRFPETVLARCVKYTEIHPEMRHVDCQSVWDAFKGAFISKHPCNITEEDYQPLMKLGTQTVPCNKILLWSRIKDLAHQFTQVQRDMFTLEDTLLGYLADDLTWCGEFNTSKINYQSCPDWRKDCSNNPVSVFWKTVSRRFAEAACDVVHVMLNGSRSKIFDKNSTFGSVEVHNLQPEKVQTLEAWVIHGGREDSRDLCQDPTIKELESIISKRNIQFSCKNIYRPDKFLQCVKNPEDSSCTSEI
pIC50: −log10 of the molar value.
readout-name: pIC50

(Q) Consider the molecule Cc1cc(C(=O)N[C@H]2CCN(S(C)(=O)=O)C2)nc(-n2ccnc2)c1 [Compound 46A] and give its recorded pIC50.
(A) 6.00 to 7.00

(Q) State its pIC50: Cc1cc(C(=O)NC2CCN(S(=O)(=O)N(C)C)CC2)nc(-n2ccnc2)c1 [Compound 18A]
(A) > 7.52

(Q) Report pIC50 for Cc1cc(C(=O)NC2COCCC2(F)F)nc(-n2ccnc2)c1 (stereo not drawn) [Compound 25A]
(A) 7.00 to 7.52

(Q) State its pIC50 for this molecule: Cc1cc(C(=O)NC2CCC(F)(F)C2)nc(-n2ccnc2)c1 (stereo not drawn) [Compound 35A]
(A) > 7.52

(Q) Recall and state the measured pIC50 for CCS(=O)(=O)N1CCC(NC(=O)c2cc(C)cc(-n3ccnc3)n2)CC1 .
(A) > 7.52

(Q) Output pIC50 of CCCS(=O)(=O)N1CCC(NC(=O)c2cc(C)cc(-n3ccnc3)n2)CC1
(A) > 7.52

(Q) Give the value of pIC50 reported for the following: Cc1cc(C(=O)NC2CCOCC2)nc(-n2ccnc2)c1 [Compound 32A]
(A) 7.00 to 7.52

(Q) Using known records, supply pIC50 for Cc1cc(C(=O)N[C@@H]2CCCN(C)C2)nc(-n2ccnc2)c1 [Compound 59A]
(A) < 6.00

(Q) Supply measured pIC50 of Cc1cc(C(=O)N[C@@H]2CCCOC2)nc(-n2ccnc2)c1 [Compound 44A] in your reply.
(A) > 7.52

* * *

Please respond with reported pIC50 for every item in the list.
Target: human CD38 (Homo sapiens (Human))
Test: NAD+ cyclase activity assay with human recombinant CD38 protein
Conditions: 1.9 nM human CD38, 15.8 μM e-NAD substrate, fluorescence read-out
Experimental: Example 5: NAD^+ Cydase Activity Assay with Human or Mouse Recombinant CD38 Protein The following assay was used to determine the ability of compounds of the invention to inhibit the hydrolysis of NAD^+ by the human or mouse enzyme, CD38. Reaction buffer: 40 mM HEPES/NaOH pH 7.5, 250 mM sucrose, 0.01% Tween Final concentrations: 0.6 nM mouse CD38 (4947-AC, Bio-Techne GmbH) 1.9 nM human CD38 (AVI2404, Bio-Techne GmbH) […] Read-out: Fluorescence intensity (extinction 300 nm/emission 410 nm) […]
pIC50: −log10 of the molar value.

(Q) For CS(=O)(=O)N1CCC(NC(=O)c2ccnc(-n3ccnc3)n2)CC1 [Compound 73A] , write its pIC50.
(A) > 7.52

(Q) Provide pIC50 value for the following compound: COCCS(=O)(=O)N1CCC(NC(=O)c2cc(C)cc(-n3ccnc3)n2)CC1
(A) > 7.52

(Q) Report pIC50 for Cc1cc(C(=O)N[C@@H]2CCS(=O)(=O)C2)nc(-n2ccnc2)c1 [Compound 86A]
(A) > 7.52

(Q) // Input: Cc1cc(C(=O)N[C@@H]2CCC(=O)NC2=O)nc(-n2ccnc2)c1 [Compound 63A] . Output its pIC50 only.
(A) < 6.00

(Q) Indicate the recorded pIC50 value for this compound: O=C(N[C@@H]1CCS(=O)(=O)C1)c1cc(C(F)(F)F)nc(-n2ccnc2)n1 [Compound 77A]
(A) 7.00 to 7.52

(Q) Using known records, supply pIC50 for CS(=O)(=O)N1CCC(NC(=O)c2cc(C(F)(F)F)nc(-n3ccnc3)n2)CC1 [Compound 75A]
(A) 7.00 to 7.52

(Q) Provide only the value of recorded pIC50 for Cc1cc(C(=O)NC2CCOC(C)(C)C2)nc(-n2ccnc2)c1 (stereo not drawn) [Compound 24A]
(A) 6.00 to 7.00

(Q) Give reported pIC50 value for Cc1ccc(-n2ccnc2)nc1C(=O)N[C@@H]1CCCOC1 [Compound 81A]
(A) 6.00 to 7.00

(Q) Give the reported value of pIC50 for this record: Cc1cc(C(=O)N[C@H]2CCC(C)(C)OC2)nc(-n2ccnc2)c1 [Compound 65A]
(A) 6.00 to 7.00
